system: Vero E6; assay: relative viability EC50 (midpoint between 100% and the lowest measured viability); higher = less toxic; conditions: 72 h
MEASURE NAME: relative viability EC50

Example entries begin here.
# COMPOUND, relative viability EC50
records = [
    ("CCn1c(=O)/c(=C2\\Sc3ccccc3N2C)s/c1=C\\c1cccc[n+]1CC", "> 10 µM"),
    ("Cc1ccc(C[N+](C)(C)C)o1 [5-methylfurmethiodide]", "> 10 µM"),
    ("CC(C)(C)NCC(O)COc1cc(Cl)ccc1Cl (centres undefined)", "> 10 µM"),
    ("O=C(Cc1ccc(Cl)c(Cl)c1)N1CCCC[C@@H]1CN1CCCC1", "> 10 µM"),
    ("Cn1c(=O)c2[nH]cnc2n(C)c1=O", "> 10 µM"),
    ("CC(=C\\c1ccc(Cl)cc1)/C(C)=N/O", "> 10 µM"),
    ("Nc1nc(N)nc(NC2CC2)n1", "> 10 µM"),
    ("O=C(c1ccc(/C=C/c2n[nH]c3ccccc23)cc1)N1CCNCC1", "> 10 µM"),
    ("COc1[nH]c2ccc(F)cc2c1C(=O)OCC1CCN(CCNS(C)(=O)=O)CC1", "> 10 µM"),
    ("Cc1ccccc1N1CCN(CCc2nnc3n2CCCC3)CC1", "> 10 µM"),
]

Ask: Query: relative viability EC50; subject: "Brc1c(NC2=NCCN2)ccc2nccnc12"
Reply: > 10 µM

Ask: // query relative viability EC50 value for entry Nc1ccc(S(N)(=O)=O)cc1 [sulfanilamide]
Reply: > 10 µM

Ask: Returns the measured relative viability EC50 for the input compound. Input: "CC(C)[C@H](C(=O)Nc1ccc(C(=O)NO)cc1)c1ccccc1"
Reply: 0.26 µM

Ask: Value lookup for relative viability EC50; key = "CN1CCN(CC/C=C2/c3ccccc3Sc3ccc(S(=O)(=O)N(C)C)cc32)CC1"
Reply: > 10 µM
